Reported IC50 values for a set of compounds
target: Pim-2 (Homo sapiens (Human), UniProt Q9P1W9); assay: Pim-2 kinase assay (TR-FRET, Fluorescein-labeled CREBtide peptide substrate); assay type: biochemical; settings: 1 mM ATP; read-out: Pim2 IC50
Sequence (Q9P1W9 whole entry): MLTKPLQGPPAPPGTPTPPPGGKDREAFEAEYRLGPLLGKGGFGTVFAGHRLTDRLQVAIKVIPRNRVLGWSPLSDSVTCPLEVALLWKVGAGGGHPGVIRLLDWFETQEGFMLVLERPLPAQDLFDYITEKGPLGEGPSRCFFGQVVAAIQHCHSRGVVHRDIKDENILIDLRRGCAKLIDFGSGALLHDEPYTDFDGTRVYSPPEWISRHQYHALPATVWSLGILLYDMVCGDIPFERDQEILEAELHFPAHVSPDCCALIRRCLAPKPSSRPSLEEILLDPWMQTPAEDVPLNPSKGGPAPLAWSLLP

>  <compound>
C[C@H]1CN(c2ccncc2NC(=O)c2ccc3oc(-c4c(F)cccc4F)cc3n2)C[C@@H](N)[C@@H]1O [Example 8]

>  <experimental-system>
Pim-2 (Homo sapiens (Human), UniProt Q9P1W9)

>  <IC50>
> 2 µM

$$$$
>  <compound>
CC(C)c1cnn2ccc(C(=O)Nc3cnccc3[C@@H]3C[C@H](C)C[C@H](N)C3)nc12 [Example 82]

>  <experimental-system>
Pim-2 (Homo sapiens (Human), UniProt Q9P1W9)

>  <IC50>
1 to 10 µM

$$$$
>  <compound>
C[C@H]1CN(c2ccncc2NC(=O)c2ccc3sc(C4CC4)nc3n2)C[C@@H](N)[C@@H]1O [Example 79]

>  <experimental-system>
Pim-2 (Homo sapiens (Human), UniProt Q9P1W9)

>  <IC50>
0.1 to 1 µM

$$$$
>  <compound>
C[C@H]1CN(c2ccncc2NC(=O)c2ccc3cc([C@@H]4C[C@@H]4C)oc3n2)C[C@@H](N)[C@@H]1O (racemic) [Example 73]

>  <experimental-system>
Pim-2 (Homo sapiens (Human), UniProt Q9P1W9)

>  <IC50>
≤ 0.1 µM

$$$$

###

# maps each entry to its pIC50
target: Pim-3 (Homo sapiens (Human))
pIC50: −log10 of the molar value.
experimental-readout: pIC50

>  <structure-string>
Cc1cc2nc(C(=O)Nc3cnccc3N3C[C@@H](N)[C@H](O)[C@@H](C)C3)ccc2s1

>  <observed-value>
≥ 8.00

$$$$
>  <structure-string>
CC(C)c1csc2ccc(C(=O)Nc3cnccc3N3C[C@H](C)C[C@H](N)C3)nc12

>  <observed-value>
≥ 8.00

$$$$
>  <structure-string>
C[C@H]1CN(c2ccncc2NC(=O)c2ccc3cc(C4CC4)oc3n2)C[C@@H](N)[C@@H]1O

>  <observed-value>
≥ 8.00

$$$$
>  <structure-string>
CC(C)c1cc2nc(C(=O)Nc3cnccc3N3C[C@@H](N)[C@H](O)[C@@H](C)C3)ccc2s1

>  <observed-value>
≥ 8.00

$$$$
>  <structure-string>
C[C@@H]1C[C@H](N)CN(c2ccncc2NC(=O)c2ccc3occ(C4CCN(C)CC4)c3n2)C1

>  <observed-value>
< 7.40

$$$$
>  <structure-string>
CC(C)c1cc2nc(C(=O)Nc3cnccc3N3C[C@H](C)C[C@H](N)C3)ccc2o1

>  <observed-value>
≥ 8.00

$$$$
>  <structure-string>
C[C@@H]1C[C@H](N)CN(c2ccncc2NC(=O)c2ccc3oc(-c4c(F)cccc4F)cc3n2)C1

>  <observed-value>
7.30 to 8.00

$$$$
>  <structure-string>
CCc1coc2ccc(C(=O)Nc3cnccc3N3C[C@@H](N)[C@H](O)[C@@H](C)C3)nc12

>  <observed-value>
≥ 8.00

$$$$

###

A short record of pIC50 observed with Pim-2 (Homo sapiens (Human), UniProt Q9P1W9) follows.
pIC50: −log10 of the molar value.

>  <compound>
C[C@@H]1C[C@H](N)CN(c2ccncc2NC(=O)c2ccc3occ(C4CC4)c3n2)C1 [Example 35]

>  <pIC50>
≥ 7.00

$$$$
>  <compound>
CC(C)c1coc2ccc(C(=O)Nc3cnccc3[C@@H]3C[C@H](C)C[C@H](N)C3)nc12 [Example 68]

>  <pIC50>
≥ 7.00

$$$$
>  <compound>
C[C@@H]1C[C@H](N)CN(c2ccncc2NC(=O)c2ccc3occ(-c4cncnc4)c3n2)C1 [Example 30]

>  <pIC50>
< 5.70

$$$$
>  <compound>
C[C@@H]1C[C@H](N)CN(c2ccncc2NC(=O)c2ccc3occ(C4CCOC4)c3n2)C1 (mixture of isomers) [Example 31]

>  <pIC50>
6.00 to 7.00

$$$$
>  <compound>
C[C@@H]1C[C@H](N)CN(c2ccncc2NC(=O)c2ccc3occ(-c4cncc(C#N)c4)c3n2)C1 [Example 26]

>  <pIC50>
< 5.70

$$$$
>  <compound>
COc1ccc(F)c(-c2coc3ccc(C(=O)Nc4cnccc4N4C[C@H](C)C[C@H](N)C4)nc23)c1F [Example 22]

>  <pIC50>
≥ 7.00

$$$$
>  <compound>
C[C@@H]1C[C@H](N)CN(c2ccncc2NC(=O)c2ccc3occ(-c4c(F)cccc4F)c3n2)C1 [Example 19]

>  <pIC50>
≥ 7.00

$$$$
